Molecular target: Neuropilin-1 (Homo sapiens)
Assay: blockers of CendR peptide binding to NRP-1 – biochemical, FP and AlphaScreen panel, dose response (AID 651650)
Conditions: NRP-1 b1b2 / RPARPAR peptide binding, FP or AlphaScreen; run 1, at 100 µM (top of the series)
molecules and their reported inhibition
Readout Kind: inhibition (%)

1) Cc1ccc(-n2c(-c3ccco3)nc3c(cnn3-c3ccc(C)cc3)c2=O)cc1: 50.3
2) COc1ccc(CCNC(=O)c2c(O)c3cccc4c3n(c2=O)CC4)cc1OC: 37.4
3) Cc1ccccc1OCC1Cc2c(nc(N)c(C#N)c2N)O1 (stereo not given): -18.4
4) COc1ccc(-c2[nH]ncc2CN(C)CCc2c(C)n[nH]c2C)c(F)c1: -14.2
5) CCN(CC)C(=O)c1cccc(-c2csc(C(NC(C)=O)c3cccc(OC)c3)n2)c1 (stereo not given): 18.7

* * *

compounds and their reported inhibition
Biological target: Neuropilin-1 (Homo sapiens)
Test: blockers of CendR peptide binding to NRP-1 – biochemical, FP and AlphaScreen panel, dose response (AID 651650)
Details: NRP-1 b1b2 / RPARPAR peptide binding, FP or AlphaScreen; run 1, at 100 µM (top of the series)
Readout Kind: inhibition (%)

1. OCC[C@H]1C[C@H](O)[C@@H](O)[C@]2(CCCCO2)O1: -5.29
2. O=C1CCCN1CCCNC(=S)Nc1ccc(Cl)cc1Cl: 19.7
3. NC(N)=NCCC[C@H](NC(=O)OCc1ccccc1)C(=O)O: 17.2
4. COC(=O)C[C@H]1c2cc(F)ccc2S(=O)(=O)N1C(C)C: 29.9
5. COc1ccncc1-c1csc(C(O)c2ccccc2)n1 (configuration not stated): 3.78
6. C=CCOc1c(CNc2ncn[nH]2)cccc1OCC: 33.2
7. CC(=O)Oc1cc2c(c3ccccc13)CCC2=O: 23.4
8. CC(C)(C)OC(=O)NCc1ccc(CNC(=O)c2nc[nH]c2C(=O)N2CCN(C(=O)OC(C)(C)C)CC2)cc1: 16.3
9. COc1ccc(Nc2nc(-c3cccnc3)nc3ccccc23)cn1: 68.3
10. CC1CCC(NC(=O)C2CCC(CNS(=O)(=O)c3cccc4cccnc34)CC2)CC1 (configuration not stated): 19
11. CC(=O)OC[C@@H]1CN(Cc2cccc(C(F)(F)F)c2)C[C@H](n2cnc3c(NCc4ccco4)ncnc32)O1: 54.5
12. COCc1cccc(-c2csc(C(C)(O)c3ccccc3)n2)c1 (configuration not stated): 25.6
13. Cc1nc2c(OCCC3CCCCC3)cccn2c1N(C)C(=O)CCC1CCCC1: 23.2
14. C=CCNC(=O)c1onc(CSc2ccc(F)c(F)c2)c1C(=O)NCC=C: 38.7
15. Cc1ccc2cc(CN(c3ccccc3C)S(=O)(=O)c3ccccc3)c(=O)[nH]c2c1: 41.9
16. Cc1ccc(NC(=S)N2CCN(Cc3ccccc3)CC2)cc1: -7.69
17. O=C(Nc1ccccc1N1CCOCC1)c1ccc(N2CCCC2=O)cc1: 46.3
18. N=C1C(=O)OCC1c1cc(Cl)ccc1NC(=O)Nc1ccccc1 (configuration not stated): 47.4
19. COC(=O)c1c(NC(=O)CN(c2ccccc2)S(C)(=O)=O)sc2c1CCCC2: 84
20. Cc1ccc(NC(=O)c2ccc3c(c2)OCCO3)cc1S(=O)(=O)Nc1cccc(Cl)c1: 4.91
21. O=C(NCCCN1CCOCC1)c1ccc2c(=O)n(-c3ccc(F)c(Cl)c3)c(=S)[nH]c2c1: 35.9
22. O=[N+]([O-])c1ccc(Cc2ccncc2)cc1: 15.9
